- Test system: HS 578T breast
- Protocol Description: NCI tumour cell line growth inhibition, 48 h
Returns one of fulfilled or not fulfilled; fulfilled when TGI is >= 30 µM.

QUERY: Determine whether this molecule has TGI no lower than 30 µM: Cn1cc2c3ccccc3nc-2c2ccccc21
RESULT: not fulfilled

QUERY: Decide: TGI of Cn1c(I)c(C#C[Si](C)(C)C)c(=O)[nH]c1=O >= 30 µM?
RESULT: not fulfilled

QUERY: Identify whether the reported TGI of the following molecule is 30 µM or greater: COc1ccc2nc3ccccc3c(NCCNCC(C)O)c2c1 (stereo unspecified)
RESULT: not fulfilled

QUERY: Kindly determine if TGI recorded for CN(C)CCCn1c(Cn2nc3ccccc3n2)nc2cc(C(F)(F)F)ccc21 is above or exactly 30 µM.
RESULT: fulfilled

QUERY: Reported TGI reaches at least 30 µM for COC(=O)C1(Cc2ccccc2)Cc2cc3c(cc2C1O)CCC3 (stereo unspecified) ?
RESULT: fulfilled

QUERY: Does TGI meet or surpass 30 µM for COc1ccccc1C(=O)OCC1CCCN2CCCCC12 (stereo unspecified) ?
RESULT: fulfilled

QUERY: # bool: TGI of Cc1c(C(N)=O)sc2nc(C)n(/N=c3\scc(-c4ccccc4)n3Cc3ccccc3)c(=O)c12 >= 30 µM
RESULT: fulfilled

QUERY: # check: TGI of COC(=O)c1ccccc1C1CN=NC12Cc1ccc3c(c1C2=O)CCC3 (stereo unspecified) is greater than or equal to 30 µM
RESULT: fulfilled

QUERY: # bool: TGI of O=S(=O)(/N=C(\NO)Nc1ccc(Cl)cc1)c1cc2ccccc2s1 >= 30 µM
RESULT: fulfilled

QUERY: Is TGI at least 30 µM? Consider CSc1nc2c(c(=O)n1C)C(c1ccccc1)C1=C(N2)/C(=C/c2ccccc2)CCC1 (stereo unspecified)
RESULT: fulfilled

---

Could you please report measured TGI for the items listed next?
- System: 786-0 renal
- Protocol Description: NCI tumour cell line growth inhibition, 48 h
Where a SMILES comes first, the peptide text is derived from it. [ ]: non-standard residue; d: D form. The star is where a group is joined. ξ: configuration not given here. NMeF = CN[CH](Cc1ccccc1)C(=O)O; ξNMe2Val = CC(C)C(C(=O)*)N(C)C; NMeV = CN[CH](C(=O)O)C(C)C; OtBu = CC(C)(C)O*

QUERY: TGI for CC(C)C(C(=O)N(C)C(Cc1ccccc1)C(=O)N(C)C(C(=O)N(C)C(C(=O)N1CCCC1C(=O)OC(C)(C)C)C(C)C)C(C)C)N(C)C (centres undefined) (ξNMe2Val-[NMeF][NMeV][NMeV]P-OtBu; configuration not given here) ?
RESULT: > 100 µM

QUERY: For COC(=O)C12Oc3ccc(-c4ccc5c(c4O)C(O)=C4C(=O)CC(C)C(O)C4(C(=O)OC)O5)c(O)c3C(O)=C1C(=O)CC(C)C2O (centres undefined) , what is its reported TGI?
RESULT: > 32.2 µM

QUERY: State the recorded TGI for this entry: CCOCCOCCOCCOCCOCCOCCOCCOCCOCCO (tested in a mixture with another compound)
RESULT: 14.4 µM

QUERY: Which TGI value is on record for COc1ccc(N2C(=O)/C(=C/c3ccc(N(CCC#N)CCC#N)cc3)N=C2c2ccccc2)cc1 ?
RESULT: > 100 µM

QUERY: Can you share its TGI? I mean this compound: O=C(NC1C/C(=N/O)c2c(Br)sc(Br)c21)C(F)(F)F (centres undefined)
RESULT: 40.4 µM

QUERY: // returns reported TGI for input Cc1ccnc(Nc2[nH]c(C(=O)c3ccc(Cl)cc3)c(N)c2C(=S)Nc2ccccc2)c1
RESULT: 34.8 µM

QUERY: Report TGI for CSc1nnc(C(C#N)C#N)nn1 please.
RESULT: > 100 µM

QUERY: Recorded TGI for Oc1[nH]c2ccccc2c1C=Nc1ccc(-n2cncn2)cc1 , please?
RESULT: > 25 µM

QUERY: Sample CCN1C(=O)N(CC)C2C1N=C(SC)N2/N=C/C=C/c1ccccc1OC (centres undefined) — what was its TGI?
RESULT: 31.7 µM
